The measurements presented in this section are drawn from ChEMBL document CHEMBL4513216.

# procedureText: Toxicity liver stage against HepG2, at 10uM
# Format: cell-based
# Set-up: test concentration 10 uM, cell line HepG2-A16-CD81EGFP
# conditionLabel: human, HepG2-A16-CD81EGFP cells; read-out: INHIBITION
measuredProperty: cytotoxicity at 10 µM (%)
Just the number in %, nothing appended.

Would you please look over these solved cases?
COc1ccc(C2CCCN2Cc2ccc(S(=O)(=O)N(C)C)o2)cc1 (stereo unspecified); -5
CC[C@H]1N(CC2CCC2)CCC[C@]12CCC(=O)N2Cc1ccncc1; -0.508
COc1cccc(CNC(C)c2ccc(-n3ccnc3)cc2)c1O (stereo unspecified); -47.4
O=C(CS(=O)(=O)Cc1cccc(Br)c1)Nc1cn[nH]c1; 0.575
Cc1ccc(-c2nc(CCNC(=O)NC3CCC(O)CC3)co2)cc1 (stereo unspecified); -2.3

The measured cytotoxicity at 10 µM associated with CC(C)N1CCC(Cc2cc(-c3cccc(C(=O)O)c3)ncn2)C1 (stereo unspecified) reads 3.01
